// reported kon for each item listed
- target or system: T1, hu-CD74 antigen (R&D SYSTEMS catalog #3590-CD-050) (human, UniProt P04233-2 73-232, limits assumed)
- T1 construct: Bought antigen; also called rhCD74; human CD74
- T1 sequence (looked up): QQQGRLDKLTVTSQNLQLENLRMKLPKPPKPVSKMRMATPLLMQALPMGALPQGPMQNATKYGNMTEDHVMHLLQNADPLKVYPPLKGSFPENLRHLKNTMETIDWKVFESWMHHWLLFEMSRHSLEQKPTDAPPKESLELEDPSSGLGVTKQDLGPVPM
- assay procedure: SPR (Biacore T200), IgG captured on anti-human Fc, rhCD74 analyte
Report the value in M⁻¹ s⁻¹ with no unit label.

Query: Which kon reading was recorded for the binder HC 1251_B08 (g)/LC 1337_A07 (wt) (antibody, human IgG1, kappa, V domains shown, IgG format) VH: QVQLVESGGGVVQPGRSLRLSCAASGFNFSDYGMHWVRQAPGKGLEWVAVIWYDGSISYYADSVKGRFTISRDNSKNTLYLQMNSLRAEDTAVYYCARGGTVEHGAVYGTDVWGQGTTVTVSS VL: DIQMTQSPSSLSASVGDRVTITCRASQGISSWVAWYQQKPEKAPKSLIYGASRLQSGVPSRFSGSGSGTDFTLTISSLQPEDFATYYCQQYHTYPLTFGGGTKVEIKR ?
Result: 265000

Query: Which kon reading was recorded for the binder HC 1251_A06 (wt)/LC 1275_C10 (g) (antibody, human IgG1, kappa, V domains shown, IgG format) VH: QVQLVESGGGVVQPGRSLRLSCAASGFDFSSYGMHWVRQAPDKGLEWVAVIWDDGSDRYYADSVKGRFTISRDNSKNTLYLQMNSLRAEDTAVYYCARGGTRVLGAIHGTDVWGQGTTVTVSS VL: DIQMTQSPSSVSASVGDRVTITCRASQGVSSWLAWYQQKPGKAPKLLIYSARYLQSGVPSRFSGSGSGTDFTLTISSLQPEDFATYYCQQYNLYPLTFGGGTKVEIKR ?
Result: 478000
